- Test Protocol: Pharmacokinetic study after a single oral administration to mice
- Type: in vivo
- Cond: female, Balb/c, mouse, plasma, po, 100 mg/kg, female Balb/c mice, single oral 100 mg/kg; time zero to tlast; read-out: AUC0-t
Experimental Readout: AUC0-t (ng·h/mL)
Field: numeric (ng·h/mL). Do not append units.

Q. Name the recorded AUC0-t of the compound listed here: CCCCCCCCCCCCCCCCN(C)CC(O)CS(=O)(=O)O (stereo not shown) [2338-CF/30]
A. 3120

----------
- Test Protocol: Pharmacokinetic study after a single oral administration to mice
- Format: in vivo
- Cond: female, Balb/c, mouse, plasma, po, 100 mg/kg, female Balb/c mice, single oral 100 mg/kg; terminal half-life
Experimental Readout: half-life (h)
Field: numeric (h). Do not append units.

Q. Name the recorded half-life of the compound listed here: CCCCCCCCCCCCCCCCN(C)CC(O)CS(=O)(=O)O (stereo not shown)
A. 9.9
